In this section we review reported OD 450 nm values for a set of binders.
Biological target: T1, SARS-CoV-2 NTD (SARS-CoV-2, UniProt P0DTC2 14-305)
T1 construct: domain: NTD
Assay: ELISA, purified IgG

>  <binder>
COV2-2132 (antibody, V domains shown) VH: EVQLVESGGGLIQPGGSLRLSCAASEVTVSSNYMSWVRQAPGKGLEWVSLIYSGGTTYYADSVKGRFTISRDNSKNTLYLQMNSLRAEDTAVYYCARDFLRWHDLWGQGTLVTVSS VL: DIQMTQSPSSLSASVGDRVTITCQASQDINNYLNWYQQKPGKAPKLLIYDASNLETGVPLRFSGSGSGTDFTFTISSLQPEDIATYYCQQYDNLPPVFGGGTKVEIK

>  <result unit>
OD 450 nm

>  <OD 450 nm>
0.15

$$$$
>  <binder>
COV2-2046 (antibody, V domains shown) VH: EVQLVESGGGLVQPGRSLRLSCAASGFTFDDYAMHWVRQAPGKGLEWVSGISWNSGSIAYTDSVKGRFTISRDNAKNSLYLQMNSLRAEDTALYYCAKAHSTGHQYYYGMDVWGQGTTVTVSS VL: DIQMTQSPSSLSASVGDRVTITCRASQSISSFLNWYQQKPGKAPKLLIYAAFNLQSGVPSRFSGSGSGTDFTLTISSLQSEDFATYYCQQSYNTPYTFGQGTKLEIK

>  <result unit>
OD 450 nm

>  <OD 450 nm>
0.09

$$$$
>  <binder>
COV2-2082 (antibody, V domains shown) VH: EVQLVESGGGVVRPGGSLRLSCAASGFIFDDYDMTWVRQAPGKGLEWVSGISWNGGNTGYADSVKGRFTISRDNAKNSLYLQMNSLRAEDTALYHCAVIMSPIPRYSGYDWAGGAFDIWGQGTMVTVSS VL: SSELTQDPAVSVALGQTVRITCQGDSLRSYYASWYQQKPGQVPILVIYDKNNRPSGIPDRFSGSSSGNTASLTITGAQAEDEADYYCNSRDSSGNAVVFGGGTKLTVL

>  <result unit>
OD 450 nm

>  <OD 450 nm>
0.11

$$$$

Each recorded value in this set is attributed to patent US20230122364A1.
